// reported TGI per item
- Tested on: NCI-H460 lung
- assayText: NCI tumour cell line growth inhibition, 48 h

compound	studyTarget	quantityName	reported
COc1ccc(C[C@H]2COC(=O)[C@@H]2Cc2cccc(Br)c2)cc1OC	NCI-H460 lung	TGI	67.2 µM
CC(Oc1ccc(Cl)cc1Cl)C(=O)NN1C(=O)CSC1c1ccccc1 (stereo not given)	NCI-H460 lung	TGI	> 100 µM
O=C(O)c1ccc(C(=O)O)c2c(C(=O)O)ccc(C(=O)O)c12	NCI-H460 lung	TGI	> 100 µM
CC12CCC3c4ccc(O)cc4CCC3C1C/C(=N\O)C2O (stereo not given)	NCI-H460 lung	TGI	> 100 µM
COc1cc(/C=C/C(=O)c2cccc(-n3cc(-c4ccc(Cl)cc4)[nH]c3=O)c2)ccc1O	NCI-H460 lung	TGI	21.7 µM
CC(=O)NNc1nc(-c2ccc([N+](=O)[O-])cc2)c(C#N)c(=O)n1C	NCI-H460 lung	TGI	> 100 µM
COc1ccc(C(O)(CCC(C)C)C(CN2CCOCC2)c2ccc(Cl)cc2)cc1 (stereo not given)	NCI-H460 lung	TGI	31.6 µM
CSc1ccccc1C#C/C=C\C#Cc1ccccc1N	NCI-H460 lung	TGI	26 µM

-- ask Entry CCOC(=O)/C=C(\C(=O)OCC)n1ccc(=O)n(Cc2cn(CCCCOC(C)=O)nn2)c1=O : reported TGI = ?
-- reply 57.7 µM

-- ask What TGI value was documented for this compound, CC1(C)OC2C(O)C(CO)OC2(C(F)F)O1 (stereo not given) ?
-- reply > 100 µM
